Overview of recorded GI50 for various molecules
System: COLO 205
experimentalDetails: NCI tumour cell line growth inhibition, 48 h
Active and inactive are the calls of the source. No stated cut-off is given here; in the data, active = GI50 up to about 1.1 µM and inactive = higher.

Would you please look over these solved cases?
[
  {
    "molecule": "CC(O)(CNS(=O)(=O)c1ccccc1)c1ccccc1 (stereo not given)",
    "GI50": "> 100 µM (inactive)"
  },
  {
    "molecule": "CS/C(C)=N/OC(=O)NCCCCNc1ccc(N=[N+]=[N-])cc1",
    "GI50": "36.1 µM (inactive)"
  },
  {
    "molecule": "C=CCCc1cc(OC)ccc1CN(C)C(C)(C)CO",
    "GI50": "> 100 µM (inactive)"
  }
]

In the following, a different molecule is considered.
Look up GI50: `CN(N)c1nc(N)c(C#N)c(C#N)c1C#N`
> 10 µM (inactive)
